# protocol.text: xn = mol fraction of the nth substance listed, in the solute-free solvent
# measurement.setup: 323.15 K; x2 = 0.2307
assay.readout: solubility (g/100 g solution)
Number only, no unit.

## Input Consider the compound CN1CCC(N(Cc2cccs2)c2ccccc2)CC1 + CCCO + O and give its measured solubility (g/100 g solution).
## Output 2.62

## Input Fill in the blank: the reported solubility (g/100 g solution) of Nc1cccc2ccncc12 + CCCO + O is ____.
## Output 1.94

## Input // lookup solubility (g/100 g solution) for Nc1cccc2ccncc12 + CC(C)O + O
## Output 1.58

## Input Looking for the measured solubility (g/100 g solution) of CN1CCC(N(Cc2cccs2)c2ccccc2)CC1 + CC(C)O + O , can you help?
## Output 2.12

## Input For the compound Cc1ccc2cc(Br)ccc2n1 + CC(C)O + O , what solubility (g/100 g solution) is on record?
## Output 1.5

---

# protocol.text: xn = mol fraction of the nth substance listed, in the solute-free solvent
# measurement.setup: 288.15 K; x2 = 0.4117
Rule: solubility (g/100 g solution) of 1 or more gives satisfied; anything lower gives not satisfied.

## Input Textbook exercise: given the entry CN1CCC(N(Cc2cccs2)c2ccccc2)CC1 + CCCO + O , state whether its solubility (g/100 g solution) is greater than or equal to 1.
## Output satisfied

## Input I'd appreciate it if you could say whether Cc1ccc2cc(Br)ccc2n1 + CC(C)O + O has solubility (g/100 g solution) at least equal to 1.
## Output not satisfied

## Input Answer whether solubility (g/100 g solution) of Nc1cccc2ccncc12 + CC(C)O + O is greater than or equal to 1.
## Output not satisfied

## Input Kindly determine if solubility (g/100 g solution) recorded for CN1CCC(N(Cc2cccs2)c2ccccc2)CC1 + CC(C)O + O is above or exactly 1.
## Output satisfied

---

# protocol.text: xn = mol fraction of the nth substance listed, in the solute-free solvent
# measurement.setup: 288.15 K; x2 = 0.1139
Answer each item with its documented solubility (g/100 g solution).
Quick one: just the number, no unit, thanks!

## Input Field request: solubility (g/100 g solution) | item: CN1CCC(N(Cc2cccs2)c2ccccc2)CC1 + CC(C)O + O
## Output 0.64

## Input Requested field: solubility (g/100 g solution). Item: Cc1ccc2cc(Br)ccc2n1 + CC(C)O + O
## Output 0.346

## Input Dear colleague, I am looking for the recorded solubility (g/100 g solution) of the following compound: Nc1cccc2ccncc12 + CCCO + O
## Output 0.385

## Input Find the recorded solubility (g/100 g solution) belonging to CN1CCC(N(Cc2cccs2)c2ccccc2)CC1 + CCCO + O and report it.
## Output 0.815

## Input Would you mind telling me what solubility (g/100 g solution) value was observed for Nc1cccc2ccncc12 + CC(C)O + O ?
## Output 0.306

---

# protocol.text: xn = mol fraction of the nth substance listed, in the solute-free solvent
# measurement.setup: 313.15 K; x2 = 0.1666
Field: solubility (g/100 g solution). Provide a value for each of the compounds that follow.
Answer with a bare number; do not write a unit.

## Input Which solubility (g/100 g solution) is listed for CN1CCC(N(Cc2cccs2)c2ccccc2)CC1 + CCCO + O ?
## Output 1.73

## Input Quick check: solubility (g/100 g solution) of CN1CCC(N(Cc2cccs2)c2ccccc2)CC1 + CC(C)O + O ?
## Output 1.39

## Input Which solubility (g/100 g solution) value belongs to Cc1ccc2cc(Br)ccc2n1 + CC(C)O + O ?
## Output 0.94

## Input Item under review: Nc1cccc2ccncc12 + CC(C)O + O . Reported solubility (g/100 g solution)?
## Output 0.902

## Input State the recorded solubility (g/100 g solution) for this entry: Nc1cccc2ccncc12 + CCCO + O
## Output 1.12
